Form field: logD (one value per entry).
# test_details: Lipophilicity, log D at pH 7.4
# Type: physicochemical
# condition_context: buffer
parameter_measured: logD

smiles_data=CC(C)C[C@H](NC(=O)[C@@H]1CCCN1C(=O)[C@H](Cc1ccccc1)NC(=O)CNC(=O)[C@@H](C)NC(=O)[C@@H](N)Cc1ccc(O)cc1)C(=O)N[C@@H](Cc1c[nH]c2ccccc12)C(=O)OCc1ccccc1 experimental_value=3.8
smiles_data=CC(C)C[C@H](NC(=O)[C@@H]1CCCN1C(=O)[C@H](Cc1ccccc1)NC(=O)CNC(=O)[C@@H](C)NC(=O)[C@@H](N)Cc1ccc(O)cc1)C(=O)N[C@@H](Cc1c[nH]c2ccccc12)C(=O)NCc1ccccc1 experimental_value=3.3
smiles_data=CC(C)C[C@H](NC(=O)[C@@H]1CCCN1C(=O)[C@H](Cc1ccccc1)NC(=O)CNC(=O)[C@@H](C)NC(=O)[C@@H](N)Cc1ccc(O)cc1)C(=O)N[C@@H](Cc1c[nH]c2ccccc12)C(=O)N(C)Cc1ccccc1 experimental_value=3.5

---

# test_system: UniProt:P25103
# Sequence (P25103 whole entry): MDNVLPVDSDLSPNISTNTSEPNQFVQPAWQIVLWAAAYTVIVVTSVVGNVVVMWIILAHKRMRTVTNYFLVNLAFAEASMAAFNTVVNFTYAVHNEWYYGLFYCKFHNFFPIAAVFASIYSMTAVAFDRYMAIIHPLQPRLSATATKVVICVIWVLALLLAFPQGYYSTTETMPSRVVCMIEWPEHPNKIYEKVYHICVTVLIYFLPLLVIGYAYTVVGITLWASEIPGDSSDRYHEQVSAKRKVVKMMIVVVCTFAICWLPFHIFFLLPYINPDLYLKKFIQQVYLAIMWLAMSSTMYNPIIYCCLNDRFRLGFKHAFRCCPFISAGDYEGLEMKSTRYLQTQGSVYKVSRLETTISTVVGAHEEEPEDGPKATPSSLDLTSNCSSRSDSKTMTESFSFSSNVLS
# test_details: Displacement of [3H]substance P from human NK1 receptor expressed in CHO cells
# Format: cell-based
Form field: logIC50 (one value per entry).
parameter_measured: logIC50

smiles_data=CC(C)C[C@H](NC(=O)[C@@H]1CCCN1C(=O)[C@H](Cc1ccccc1)NC(=O)CNC(=O)[C@@H](C)NC(=O)[C@@H](N)Cc1ccc(O)cc1)C(=O)N[C@@H](Cc1c[nH]c2ccccc12)C(=O)N(C)Cc1cc(C(F)(F)F)cc(C(F)(F)F)c1 experimental_value=-8.5
smiles_data=CC(C)C[C@H](NC(=O)[C@@H]1CCCN1C(=O)[C@H](Cc1ccccc1)NC(=O)CNC(=O)[C@@H](C)NC(=O)[C@@H](N)Cc1ccc(O)cc1)C(=O)N[C@@H](Cc1c[nH]c2ccccc12)C(=O)N(C)Cc1ccccc1 experimental_value=-8.5
smiles_data=CC(C)C[C@H](NC(=O)[C@@H]1CCCN1C(=O)[C@H](Cc1ccccc1)NC(=O)CNC(=O)[C@@H](C)NC(=O)[C@@H](N)Cc1ccc(O)cc1)C(=O)N[C@@H](Cc1c[nH]c2ccccc12)C(=O)OCc1ccccc1 experimental_value=-6.7
smiles_data=CC(C)C[C@H](NC(=O)[C@@H]1CCCN1C(=O)[C@H](Cc1ccccc1)NC(=O)CNC(=O)[C@@H](C)NC(=O)[C@@H](N)Cc1ccc(O)cc1)C(=O)N[C@@H](Cc1c[nH]c2ccccc12)C(=O)NCc1cc(C(F)(F)F)cc(C(F)(F)F)c1 experimental_value=-8.9

---

# test_system: Substance-P receptor (Rattus norvegicus) (UniProt P14600)
# Sequence (P14600 whole entry): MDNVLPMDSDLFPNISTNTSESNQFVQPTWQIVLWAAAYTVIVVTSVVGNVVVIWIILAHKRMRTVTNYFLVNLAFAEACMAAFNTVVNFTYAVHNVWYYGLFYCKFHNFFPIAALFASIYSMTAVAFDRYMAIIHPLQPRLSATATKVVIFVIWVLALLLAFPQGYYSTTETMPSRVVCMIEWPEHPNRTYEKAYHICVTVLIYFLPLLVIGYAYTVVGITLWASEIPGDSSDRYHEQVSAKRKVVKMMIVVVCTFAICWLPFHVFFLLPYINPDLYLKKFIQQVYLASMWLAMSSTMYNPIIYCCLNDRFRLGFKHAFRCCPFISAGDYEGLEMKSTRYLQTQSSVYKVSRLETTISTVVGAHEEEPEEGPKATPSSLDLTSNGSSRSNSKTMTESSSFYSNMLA
# test_details: Displacement of [3H]substance P from rat NK1 receptor expressed in CHO cells
# Format: cell-based
Form field: logIC50 (one value per entry).
parameter_measured: logIC50

smiles_data=CC(C)C[C@H](NC(=O)[C@@H]1CCCN1C(=O)[C@H](Cc1ccccc1)NC(=O)CNC(=O)[C@@H](C)NC(=O)[C@@H](N)Cc1ccc(O)cc1)C(=O)N[C@@H](Cc1c[nH]c2ccccc12)C(=O)OCc1ccccc1 parameter_measured=logIC50 experimental_value=-6.1
smiles_data=CC(C)C[C@H](NC(=O)[C@@H]1CCCN1C(=O)[C@H](Cc1ccccc1)NC(=O)CNC(=O)[C@@H](C)NC(=O)[C@@H](N)Cc1ccc(O)cc1)C(=O)N[C@@H](Cc1c[nH]c2ccccc12)C(=O)NCc1cc(C(F)(F)F)cc(C(F)(F)F)c1 parameter_measured=logIC50 experimental_value=-7
smiles_data=CC(C)C[C@H](NC(=O)[C@@H]1CCCN1C(=O)[C@H](Cc1ccccc1)NC(=O)CNC(=O)[C@@H](C)NC(=O)[C@@H](N)Cc1ccc(O)cc1)C(=O)N[C@@H](Cc1c[nH]c2ccccc12)C(=O)OCc1cc(C(F)(F)F)cc(C(F)(F)F)c1 parameter_measured=logIC50 experimental_value=-8.3
smiles_data=CC(C)C[C@H](NC(=O)[C@@H]1CCCN1C(=O)[C@H](Cc1ccccc1)NC(=O)CNC(=O)[C@@H](C)NC(=O)[C@@H](N)Cc1ccc(O)cc1)C(=O)N[C@@H](Cc1c[nH]c2ccccc12)C(=O)N(C)Cc1cc(C(F)(F)F)cc(C(F)(F)F)c1 parameter_measured=logIC50 experimental_value=-7.7
